Overview of reported IC50 across a group of compounds:
- SYSTEM: KRAS Q61H (Homo sapiens, UniProt P01116+P62937, Q61H)
- Sequence (P01116 1-169 isoform P01116-2 Q61H limits assumed, one chain of several): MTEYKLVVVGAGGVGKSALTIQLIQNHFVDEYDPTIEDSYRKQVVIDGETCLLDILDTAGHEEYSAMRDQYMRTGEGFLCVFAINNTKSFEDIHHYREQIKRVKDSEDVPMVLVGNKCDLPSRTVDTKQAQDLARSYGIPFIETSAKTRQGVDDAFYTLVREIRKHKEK
- ASSAY NOTES: Ras-Raf disruption/FRET/MOA assay, KRAS Q61H
- Format: biochemical
- MEASUREMENT SETUP: KRAS Q61H; read-out: KRAS Q61H FRET data IC50

Before answering, review these 3 worked examples.
COMPOUND	RECORDED RESULT
CCn1c(-c2cccnc2[C@H](C)OC)c2c3cc(ccc31)-c1csc(n1)C[C@H](NC(=O)[C@H](C1CCCC1)N1CC[C@]3(CCN(C(=O)[C@H]4CN4)C3)C1=O)C(=O)N1CCC[C@H](N1)C(=O)OCC(C)(C)C2 [Compound 319]	100 to 1000 nM
CCn1c(-c2cccnc2[C@H](C)OC)c2c3cc(ccc31)-c1cc(CF)cc(c1)C[C@H](NC(=O)[C@H](C1CCCC1)N1CC[C@]3(CCN(C(=O)[C@@H]4N[C@@H]4C4CC4)C3)C1=O)C(=O)N1CCC[C@H](N1)C(=O)OCC(C)(C)C2 [Compound 321]	100 to 1000 nM
CCn1c(-c2cccnc2[C@H](C)OC)c2c3cc(ccc31)-c1csc(n1)C[C@H](NC(=O)[C@H](C(C)C)N(C)C(=O)N1C3CCC1CN(C(=O)[C@H]1CN1)C3)C(=O)N1CCC[C@H](N1)C(=O)OCC(C)(C)C2 [Compound 303]	10 to 100 nM

According to the records, this compound CCn1c(-c2cccnc2[C@H](C)OC)c2c3cc(ccc31)-c1cc(O)cc(c1)C[C@H](NC(=O)[C@H](C(C)C)N1CCCC3(CN(C(=O)[C@@H]4CN4)C3)C1=O)C(=O)N1CCC[C@H](N1)C(=O)OCC(C)(C)C2 [Compound 306] displays IC50 of 10 to 100 nM

Kindly note the recorded IC50 for CCn1c(-c2cccnc2[C@H](C)OC)c2c3cc(ccc31)-c1csc(n1)C[C@H](NC(=O)[C@H](C1CCCC1)N1CC[C@]3(CCN(C(=O)[C@@H]4N[C@@H]4C4CC4)C3)C1=O)C(=O)N1CCC[C@H](N1)C(=O)OCC(C)(C)C2 [Compound 234] , which is 1000 to 10000 nM

Short answer for CCn1c(-c2cccnc2[C@H](C)OC)c2c3cc(ccc31)-c1cccc(c1)C[C@H](NC(=O)[C@H](C1CCCC1)N1CC[C@]3(CCN(C(=O)[C@@H]4N[C@@H]4C4CC4)C3)C1=O)C(=O)N1CCC[C@H](N1)C(=O)OCC(C)(C)C2 [Compound 313] : IC50 was 100 to 1000 nM

The value of IC50 measured for the compound CCn1c(-c2cccnc2[C@H](C)OC)c2c3cc(ccc31)-c1cc(O)cc(c1)C[C@H](NC(=O)[C@H](C1CCCC1)N1CC[C@@]3(CCN(C(=O)[C@@H]4N[C@@H]4C4CC4)C3)C1=O)C(=O)N1CCC[C@H](N1)C(=O)OCC(C)(C)C2 [Compound 215] turned out to be 10 to 100 nM

Per the records, this compound ( CCn1c(-c2cnccc2COC)c2c3cc(ccc31)-c1cc(O)cc(c1)C[C@H](NC(=O)[C@H](C(C)C)N(C)C(=O)CN(C)C(=O)[C@H]1CN1S(C)(=O)=O)C(=O)N1CCC[C@H](N1)C(=O)OCC(C)(C)C2 (some centres unmarked) [Example 36] ) has IC50 equal to 10 to 100 nM

---

- SYSTEM: KRAS WT (Homo sapiens, UniProt P01116+P62937)
- Sequence (P01116 1-169 isoform P01116-2 limits assumed, one chain of several): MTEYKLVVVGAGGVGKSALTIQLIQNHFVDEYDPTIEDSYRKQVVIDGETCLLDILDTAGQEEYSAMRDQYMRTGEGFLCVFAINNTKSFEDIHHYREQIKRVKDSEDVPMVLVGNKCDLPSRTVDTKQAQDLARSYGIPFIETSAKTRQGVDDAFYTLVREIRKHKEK
- ASSAY NOTES: Ras-Raf disruption/FRET/MOA assay, KRAS WT
- Type: biochemical
- MEASUREMENT SETUP: disruption of BRAF RBD binding, with Cyclophilin A; read-out: KRAS WT FRET IC50
- Excerpt: Disruption of B-Raf Ras-Binding Domain (BRAF^RBD) Interaction with K-Ras by Compounds of the Invention (Also Called a FRET Assay or an MOA Assay) Note—The following protocol describes a procedure for monitoring disruption of K-Ras G12C (GMP-PNP) binding to BRAF^RBD by a compound of the invention. This protocol may also be executed substituting other Ras proteins or nucleotides, such as K-Ras G12D and K-Ras G13D. […]
pIC50: −log10 of the molar value.
VALUE KIND: pIC50

MOL	pIC50
CCn1c(-c2cnccc2COC)c2c3cc(ccc31)-c1cccc(c1)C[C@H](NC(=O)[C@H](C(C)C)N(C)C(=O)[C@H]1CC[C@H](N=C=Nc3ccc(OC)cc3)C1)C(=O)N1CCC[C@H](N1)C(=O)OCC(C)(C)C2	< 5.00

Pending compound:
Note to self: pIC50 recorded for `CCn1c(-c2cnccc2COC)c2c3cc(ccc31)-c1cc(O)cc(c1)C[C@H](NC(=O)[C@H](C(C)C)N(C)C(=O)CN(C)C(=O)[C@H]1CN1C(C)=O)C(=O)N1CCC[C@H](N1)C(=O)OCC(C)(C)C2` was 6.00 to 7.00

---

- SYSTEM: KRAS WT (Homo sapiens, UniProt P01116+P62937)
- ASSAY NOTES: Ras-Raf disruption/FRET/MOA assay, KRAS WT
- Format: biochemical
- MEASUREMENT SETUP: disruption of BRAF RBD binding, with Cyclophilin A; read-out: KRAS WT FRET IC50
pIC50: −log10 of the molar value.
VALUE KIND: pIC50

Some compounds with recorded pIC50:
COMPOUND	VALUE KIND	RECORDED RESULT
CCn1c(-c2cccnc2[C@H](C)OC)c2c3cc(ccc31)-c1cc(O)cc(c1)C[C@H](NC(=O)[C@H](C(C)C)N1CO[C@]3(CCN(C(=O)[C@H]4CN4)C3)C1=O)C(=O)N1CCC[C@H](N1)C(=O)OCC(C)(C)C2	pIC50	7.00 to 8.00
CCn1c(-c2cccnc2[C@H](C)OC)c2c3cc(ccc31)-c1csc(n1)C[C@H](NC(=O)[C@H](C(C)C)N(C)C(=O)N1C3CCC1CN(C(=O)[C@@H]1CN1)C3)C(=O)N1CCC[C@H](N1)C(=O)OCC(C)(C)C2	pIC50	6.00 to 7.00

// `CCn1c(-c2cnccc2COC)c2c3cc(ccc31)-c1cc(O)cc(c1)C[C@H](NC(=O)[C@H](C(C)C)N(C)C(=O)CN(C)C(=O)[C@@H]1CN1C(C)=O)C(=O)N1CCC[C@H](N1)C(=O)OCC(C)(C)C2` : pIC50 value = 7.00 to 8.00

The recorded pIC50 for `CCn1c(-c2cccnc2[C@H](C)OC)c2c3cc(ccc31)-c1cc(O)cc(c1)C[C@H](NC(=O)[C@H](C1CCCC1)N1CC[C@@]3(CCN(C(=O)[C@@H]4N[C@@H]4C4CC4)C3)C1=O)C(=O)N1CCC[C@H](N1)C(=O)OCC(C)(C)C2` is 6.00 to 7.00

// pIC50 lookup, compound = CCn1c(-c2cnccc2COC)c2c3cc(ccc31)-c1cc(O)cc(c1)C[C@H](NC(=O)[C@H](C(C)C)N(C)C(=O)CN(C)C(=O)[C@@H]1[C@H](C(=O)OC)N1[S@@+]([O-])C(C)(C)C)C(=O)N1CCC[C@H](N1)C(=O)OCC(C)(C)C2 (some centres unmarked) , result: 6.00 to 7.00

---

- SYSTEM: KRAS G12S (Homo sapiens, UniProt P01116+P62937, G12S)
- Sequence (P01116 1-169 isoform P01116-2 G12S limits assumed, one chain of several): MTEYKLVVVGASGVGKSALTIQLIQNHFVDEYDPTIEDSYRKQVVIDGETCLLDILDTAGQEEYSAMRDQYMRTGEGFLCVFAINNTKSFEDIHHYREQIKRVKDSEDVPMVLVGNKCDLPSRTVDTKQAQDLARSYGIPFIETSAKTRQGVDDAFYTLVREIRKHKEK
- ASSAY NOTES: Ras-Raf disruption/FRET/MOA assay, KRAS G12S
- Assay type: biochemical
- MEASUREMENT SETUP: disruption of BRAF RBD binding, with Cyclophilin A; read-out: KRAS G12S FRET IC50
VALUE KIND: IC50

MOL	RECORDED RESULT
CCn1c(-c2cccnc2[C@H](C)OC)c2c3cc(ccc31)-c1cccc(c1)C[C@H](NC(=O)[C@H](C(C)C)N1CC[C@H](CN=C=NCCOC)C1)C(=O)N1CCC[C@H](N1)C(=O)OCC(C)(C)C2	1 to 10 µM

// recorded IC50 for `CCn1c(-c2cccnc2[C@H](C)OC)c2c3cc(ccc31)-c1csc(n1)C[C@H](NC(=O)[C@H](C1CCCC1)N1CC[C@]3(CCN(C(=O)[C@@H]4N[C@@H]4C4CC4)C3)C1=O)C(=O)N1CCC[C@H](N1)C(=O)OCC(C)(C)C2` : 1 to 10 µM

---

Each record here notes measured pIC50.
- SYSTEM: NRAS G12C (Homo sapiens, UniProt P01111+P62937, G12C)
- Construct: His6
- Sequence (P01111 whole entry G12C): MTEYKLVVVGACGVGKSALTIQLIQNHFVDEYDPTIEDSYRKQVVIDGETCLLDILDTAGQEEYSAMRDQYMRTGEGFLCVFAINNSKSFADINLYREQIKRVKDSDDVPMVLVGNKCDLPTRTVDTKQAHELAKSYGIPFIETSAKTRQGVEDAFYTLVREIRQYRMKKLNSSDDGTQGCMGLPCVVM
- Sequence (P62937 whole entry): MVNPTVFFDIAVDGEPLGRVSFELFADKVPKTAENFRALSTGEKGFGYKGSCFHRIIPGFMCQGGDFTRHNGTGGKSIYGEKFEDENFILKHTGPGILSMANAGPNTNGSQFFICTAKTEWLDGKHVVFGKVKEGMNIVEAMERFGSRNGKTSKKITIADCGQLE
- ASSAY NOTES: Ras-Raf disruption/FRET/MOA assay, NRAS G12C
- Format: biochemical
- MEASUREMENT SETUP: NRAS G12C; read-out: NRAS G12C FRET data IC50
pIC50: −log10 of the molar value.

COMPOUND	SYSTEM	pIC50
CCn1c(-c2cccnc2[C@H](C)OC)c2c3cc(ccc31)-c1cc(O)cc(c1)C[C@H](NC(=O)[C@H](C(C)C)N1CC[C@@]3(CCN(C[C@H]4CN4)C3)C1=O)C(=O)N1CCC[C@H](N1)C(=O)OCC(C)(C)C2 (single isomer, unassigned) [Example 139]	NRAS G12C (Homo sapiens, UniProt P01111+P62937, G12C)	> 8.00

Summary: `CCn1c(-c2cccnc2[C@H](C)OC)c2c3cc(ccc31)-c1cc(O)cc(c1)C[C@H](NC(=O)[C@H](C(C)C)N1CCC3(CCN(C(=O)[C@H]4CN4)CC3)C1=O)C(=O)N1CCC[C@H](N1)C(=O)OCC(C)(C)C2` , NRAS G12C (Homo sapiens, UniProt P01111+P62937, G12C), pIC50 = > 8.00

These measurements were taken from patent US11739074B2.
